Reference for the values: ChEMBL document CHEMBL3886359

assayedTarget: Transient receptor potential cation channel subfamily M member 8 (Homo sapiens)
Sequence (Q7Z2W7 whole entry): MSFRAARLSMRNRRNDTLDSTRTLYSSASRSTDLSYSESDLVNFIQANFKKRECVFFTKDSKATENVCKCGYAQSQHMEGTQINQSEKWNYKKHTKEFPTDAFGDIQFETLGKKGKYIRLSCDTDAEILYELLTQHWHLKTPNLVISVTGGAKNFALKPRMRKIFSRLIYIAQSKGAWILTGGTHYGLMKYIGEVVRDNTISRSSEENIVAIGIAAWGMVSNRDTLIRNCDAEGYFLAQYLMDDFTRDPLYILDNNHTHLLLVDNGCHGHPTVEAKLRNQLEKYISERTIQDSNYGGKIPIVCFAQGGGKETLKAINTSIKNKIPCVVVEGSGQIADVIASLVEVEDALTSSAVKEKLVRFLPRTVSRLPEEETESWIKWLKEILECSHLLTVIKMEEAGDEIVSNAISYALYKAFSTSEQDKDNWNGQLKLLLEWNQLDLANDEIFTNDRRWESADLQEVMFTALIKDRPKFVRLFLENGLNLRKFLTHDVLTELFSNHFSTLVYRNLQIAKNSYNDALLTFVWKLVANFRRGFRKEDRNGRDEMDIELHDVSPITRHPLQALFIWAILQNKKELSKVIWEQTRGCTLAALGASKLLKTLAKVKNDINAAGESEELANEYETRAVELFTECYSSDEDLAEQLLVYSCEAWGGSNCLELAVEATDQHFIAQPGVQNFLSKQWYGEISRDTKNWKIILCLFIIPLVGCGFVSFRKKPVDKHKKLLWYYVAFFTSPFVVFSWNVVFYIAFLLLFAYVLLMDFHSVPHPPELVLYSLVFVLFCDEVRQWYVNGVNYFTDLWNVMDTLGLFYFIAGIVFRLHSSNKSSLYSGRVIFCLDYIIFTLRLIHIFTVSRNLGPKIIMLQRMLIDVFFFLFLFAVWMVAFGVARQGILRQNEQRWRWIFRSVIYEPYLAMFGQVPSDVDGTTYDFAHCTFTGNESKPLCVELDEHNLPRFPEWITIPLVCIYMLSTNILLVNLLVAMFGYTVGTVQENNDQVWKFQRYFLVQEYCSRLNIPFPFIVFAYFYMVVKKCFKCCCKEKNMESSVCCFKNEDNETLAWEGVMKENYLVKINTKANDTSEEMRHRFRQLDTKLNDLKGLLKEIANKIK
assayOverview: Radiometric Calcium Assay: The inhibition of TRPA1 receptor activation was measured as inhibition of allylisothiocyanate (AITC) induced cellular uptake of radioactive calcium. Test compounds were dissolved in DMSO to prepare 10 mM stock solution and then diluted using plain medium with 0.1% BSA and 1.8 mM CaCl2 to get desired concentration. Final concentration of DMSO in the reaction was 0.5% (v/v). Human TRPA1 expressing CHO cells were grown in F-12 DMEM medium with 10% FBS, 1% penicillin-streptomycin solution, and 400 ug/ml of G-418. Cells were seeded 24 h prior to the assay in 96 well plates so as to get 50,000 cells per well on the day of experiment. Cells were treated with test compounds for 10 min followed by addition of AITC at a final concentration of 30 micromolar and 5 uCi/ml 45Ca+2 for 3 min at 25° C. Cells were washed and lysed using buffer containing 1% Triton X-100, 0.1% deoxycholate and 0.1% SDS. Radioactivity in the lysate was measured in Packard Top count.
Parameter IC50: see the listing below.

Worked cases, answers included:
* Cn1c(=O)c2c(CC(=O)Nc3nc(-c4ccc(C(F)(F)F)c(F)c4F)cs3)nsc2n(C)c1=O | > 10 µM
* Cc1oc2c(c1CC(=O)Nc1nc(-c3ccc(OC(F)(F)F)c(Cl)c3)cs1)c(=O)n(C)c(=O)n2C | > 10 µM
* Cc1oc2c(c1CC(=O)/N=c1\scc(-c3ccc(OC(F)(F)F)c(Cl)c3)n1COP(=O)(O)O)c(=O)n(C)c(=O)n2C | > 10 µM
* Cc1oc2c(c1CC(=O)/N=c1\scc(-c3ccc(OC(F)(F)F)c(Cl)c3)n1COC(=O)[C@@H](N)C(C)C)c(=O)n(C)c(=O)n2C | > 10 µM

Q: Look up IC50 with Transient receptor potential cation channel subfamily M member 8 (Homo sapiens) for this compound: `Cn1nc2c(c1CC(=O)/N=c1\scc(-c3ccc(F)c(C(F)(F)F)c3F)n1COP(=O)(O)O)c(=O)n(C)c(=O)n2C`
A: > 10 µM
